# credit: ChEMBL document CHEMBL3779874

Give pKi for every item shown.
# reply with the number alone; pKi is -log10 of concentration in mol/L

Please respond with reported pKi (system UniProt P00533) for "CN1CCN(c2ccc(NC(=O)c3c(Nc4cccc(Cl)c4)cc[nH]c3=O)cc2)CC1" .
Sequence (P00533 whole entry): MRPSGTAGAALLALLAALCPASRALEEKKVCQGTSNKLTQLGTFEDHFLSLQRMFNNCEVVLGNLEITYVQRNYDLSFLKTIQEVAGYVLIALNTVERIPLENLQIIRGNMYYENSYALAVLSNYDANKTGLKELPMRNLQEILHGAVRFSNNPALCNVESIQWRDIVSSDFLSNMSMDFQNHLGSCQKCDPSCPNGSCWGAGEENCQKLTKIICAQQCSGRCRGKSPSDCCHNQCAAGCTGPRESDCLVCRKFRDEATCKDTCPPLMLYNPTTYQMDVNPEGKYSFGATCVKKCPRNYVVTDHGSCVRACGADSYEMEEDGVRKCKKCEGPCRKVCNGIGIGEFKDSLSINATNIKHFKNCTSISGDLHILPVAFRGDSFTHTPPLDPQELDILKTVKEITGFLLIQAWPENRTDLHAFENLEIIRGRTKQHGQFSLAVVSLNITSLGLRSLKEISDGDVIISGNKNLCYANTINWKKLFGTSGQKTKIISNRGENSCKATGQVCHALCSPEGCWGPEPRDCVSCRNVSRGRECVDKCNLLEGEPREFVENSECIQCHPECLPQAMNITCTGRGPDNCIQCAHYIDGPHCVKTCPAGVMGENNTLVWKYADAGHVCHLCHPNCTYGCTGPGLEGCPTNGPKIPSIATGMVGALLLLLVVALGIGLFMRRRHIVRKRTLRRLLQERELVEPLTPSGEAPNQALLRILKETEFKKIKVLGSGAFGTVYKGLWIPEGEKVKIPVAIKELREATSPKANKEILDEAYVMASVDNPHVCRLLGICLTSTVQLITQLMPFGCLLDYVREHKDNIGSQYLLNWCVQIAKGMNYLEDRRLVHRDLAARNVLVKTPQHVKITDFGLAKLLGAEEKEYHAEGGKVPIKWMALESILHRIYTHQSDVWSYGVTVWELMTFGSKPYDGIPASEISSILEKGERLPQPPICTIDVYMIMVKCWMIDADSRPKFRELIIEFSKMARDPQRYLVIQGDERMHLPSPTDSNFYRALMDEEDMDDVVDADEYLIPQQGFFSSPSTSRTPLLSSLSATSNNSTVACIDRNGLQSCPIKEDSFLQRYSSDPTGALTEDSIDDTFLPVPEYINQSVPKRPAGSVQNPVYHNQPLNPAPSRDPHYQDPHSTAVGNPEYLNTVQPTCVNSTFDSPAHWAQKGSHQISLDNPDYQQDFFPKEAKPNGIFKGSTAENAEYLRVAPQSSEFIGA
5.60

Please respond with reported pKi (system UniProt P00533) for "CN1CCN(c2ccc(NC(=O)c3c(NCCc4cccc(Cl)c4)cc[nH]c3=O)cc2)CC1" .
7.37

Please respond with reported pKi (system UniProt P00533) for "COc1ccccc1Nc1cc[nH]c(=O)c1C(=O)Nc1ccc(N2CCCN(C)CC2)cc1" .
6.15

Please respond with reported pKi (system UniProt P00533) for "CN1CCN(c2ccc(NC(=O)c3c(NCCc4ccc(Cl)cc4)cc[nH]c3=O)cc2)CC1" .
7.43

Please respond with reported pKi (system UniProt P00533) for "CN1CCN(c2ccc(NC(=O)c3c(NCc4ccccc4)cc[nH]c3=O)cc2)CC1" .
6.46

Please respond with reported pKi (system UniProt P00533) for "CN1CCN(c2ccc(NC(=O)c3c(NC[C@@H](O)c4cccc(Cl)c4)cc[nH]c3=O)cc2)CC1" .
7.74

Please respond with reported pKi (system UniProt P00533) for "COc1ccccc1Nc1cc[nH]c(=O)c1-c1nc2c(C(C)C)cccc2[nH]1" .
5.62

Please respond with reported pKi (system UniProt P00533) for "COc1ccccc1Nc1cc[nH]c(=O)c1C(=O)Nc1ccc(CN2CCN(C)CC2)cc1" .
5.92

Please respond with reported pKi (system UniProt P00533) for "COc1ccccc1Nc1cc[nH]c(=O)c1C(=O)Nc1ccc(N2CCN(C)CC2)cc1" .
5.96

Please respond with reported pKi (system UniProt P00533) for "O=C(Nc1ccccc1)c1c(NCCc2cccc(Cl)c2)cc[nH]c1=O" .
5.92

---

- assay.target: Epidermal growth factor receptor (Homo sapiens, UniProt P00533, L858R/T790M)
- test.name: Inhibition of human EGFR catalytic domain (668 to 1210 residues) T790M/L858R double mutant using Fl-EEPLYWSFPAKKK-CONH2 peptide substrate preincubated for 30 mins followed by substrate addition measured after 30 mins by Caliper Mobility Shift Assay
- experimental.context: read-out: Ki(app)
experimental.readout: log10 of Ki (log10 of the value in nM)
Parameter value (number): base-10 log of Ki in nM.

Indicate the recorded log10 of Ki value for this compound: "COc1ccccc1Nc1cc[nH]c(=O)c1-c1nc2c(C(C)C)cccc2[nH]1"
1.76

Indicate the recorded log10 of Ki value for this compound: "CN1CCN(c2ccc(NC(=O)c3c(NCCc4ccccc4)cc[nH]c3=O)cc2)CC1"
2.07

Indicate the recorded log10 of Ki value for this compound: "COc1ccccc1Nc1cc[nH]c(=O)c1C(=O)Nc1ccc(N2CCS(=O)(=O)CC2)cc1"
1.57

Indicate the recorded log10 of Ki value for this compound: "COc1ccccc1Nc1cc[nH]c(=O)c1C(=O)Nc1ccc(N2CCN(C)CC2)cc1"
1.28

Indicate the recorded log10 of Ki value for this compound: "COc1ccccc1Nc1cc[nH]c(=O)c1C(=O)Nc1ccc(N2CCC(C)CC2)cc1"
2.80

Indicate the recorded log10 of Ki value for this compound: "CN1CCN(c2ccc(NC(=O)c3c(NCCc4cccc(Cl)c4)cc[nH]c3=O)cc2)CC1"
1.82

Indicate the recorded log10 of Ki value for this compound: "CN1CCN(c2ccc(NC(=O)c3c(Nc4ccccc4)cc[nH]c3=O)cc2)CC1"
2.16

Indicate the recorded log10 of Ki value for this compound: "CN1CCN(c2ccc(NC(=O)c3c(Nc4ccc(Cl)cc4)cc[nH]c3=O)cc2)CC1"
2.80

Indicate the recorded log10 of Ki value for this compound: "CN(C)c1ccc(NC(=O)c2c(NCCc3cccc(Cl)c3)cc[nH]c2=O)cc1"
2.46

Indicate the recorded log10 of Ki value for this compound: "CN1CCN(c2ccc(NC(=O)c3c(Nc4ccccn4)cc[nH]c3=O)cc2)CC1"
2.03
